Attribute: abundance fitness
B1: POU domain, class 4, transcription factor 2, residues 256 to 327; numbered along this chain, Q12837 (parent)
chain: RDLEAFAERFKQRRIKLGVTQADVGSALANLKIPGVGSLSQSTICRFESLTLSHNNMIALKPILQAWLEEAE

Variants of: B1
Assay: abundance fitness (aPCA) (normalised: wild type 0, dead -1); higher = more abundant; growth selection in yeast, the domain comes from the species named
Conditions: Homo sapiens
assayReadout: abundance fitness

In [3]: df
Out[3]:
    sequencechange  valuereported
 0            A66Y         -0.298
 1            S49L         -0.297
 2            M57H         -0.547
 3            G25M         -0.242
 4            I44V         -0.168
 5            T51C         -0.077
 6            T43Q         -0.452
 7            S26D         -0.076
 8            F47N         -0.871
 9            M57F         -0.428
10            P62Y         -0.827
11            S49I          -1.03
12            V24E          -0.88
13            K32F         -0.372
14            I58T         -0.235
15            L31Q          0.058
16            R46D          0.094
17            L60C          -0.12
18            K61L         -0.148
19            G37N         -0.309
20            S26H         -0.059
21            S53Y         -0.556
22            R46L          -0.22
23            M57C         -0.251
24            S40P         -0.193
25            S38Y          0.026
26            I63A          -0.03
27            T51Y         -0.567
28            P34K         -0.008
29            S26F         -0.032
30            G25P         -0.487
31            Q21M          -0.39
32            A22Q         -0.052
33            F47P         -0.897
34            V24Y         -0.975
35            A27G          -0.39
36            Q41L         -0.289
